- condition: [M+Na]+; instrument: TW; calibrated with phosphatidylcholines (ESI+) and phosphatidylethanolamines (ESI-), doubly charged cardiolipins calibrated with poly-DL-…
assay.readout: collision cross section (N2) (Å²)

INSERT INTO results (compound, unit_annotation, reported_result) VALUES
  ('CCCCCCC1CC1CCCCCCCC(=O)O[C@H](CO)COP(=O)([O-])OCC[NH3+] (stereo partly drawn)', 'Å²', 219.32),
  ('CCCCCC/C=C\CCCCCCCC(=O)OC[C@H](COP(=O)(O)OCCNC(=O)CCCCCCCCCCCCCCC)OC(=O)CCCCCCCCCCCCCC', 'Å²', 321.4),
  ('CCCCCC/C=C\CCCCCCCC(=O)OCC(COP(=O)(O)OCC(O)CO)OC(=O)CCCCCCC/C=C\CCCCCCCC (stereo not drawn)', 'Å²', 278.38);
